From: ChEMBL document CHEMBL2321743

Exercise: for every item that follows, state its recorded MIC.
Tested on: Serratia marcescens
Experiment: Antibacterial activity against Serratia marcescens ATCC 13880 after 24 hrs by broth microdilution method
Type: functional
Conditions: ATCC 13880, 24 h
Numbers only; they are read as µg/mL.

Q) // query MIC value for entry CO[C@H]1/C=C/O[C@@]2(C)Oc3c(C)c(O)c4c(O)c(c(/C=N/N5CCN(C)CC5)c(O)c4c3C2=O)NC(=O)/C(C)=C\C=C\[C@H](C)[C@H](O)[C@@H](C)[C@@H](O)[C@@H](C)[C@H](OC(C)=O)[C@@H]1C [RIFAMPIN]
A) 32

Q) // query MIC value for entry CCCCCCCCC(=O)c1c(O)cc(C)oc1=O
A) 128

Q) // query MIC value for entry Cc1cc(O)c(C(=O)CCCCC(=O)Nc2c3sscc-3[nH]c2=O)c(=O)o1
A) 128
